Reported Relative tumor proliferation rate (T/C %) is given for each of the following molecules.
- System: HCT-116 human colon cancer xenografts
- METHOD_SUMMARY: Tumor growth inhibition of HCT-116 human colon cancer xenografts in nude mice
- Assay type: in vivo, Balb/c nude mice
- TEST_CONDITIONS: Day 30; single IP injection (QD×1); D1 and D2 400 mg/kg, D3 350 mg/kg, D4 300 mg/kg
Numeric answer only, unit % assumed.

MOLECULE	DISPLAY_UNIT	TEST_RESULT
O=C(CCCC(=O)OC[C@H]1O[C@@H](n2ccc(NC(=O)OCc3ccccc3)nc2=O)C(F)(F)[C@@H]1O)OC[C@H]1O[C@@H](n2ccc(NC(=O)OCc3ccccc3)nc2=O)C(F)(F)[C@@H]1O [Compound D3]	%	52.09
CCCCOC(=O)Nc1ccn(C2OC(COC(=O)CCC(=O)OC[C@H]3O[C@@H](n4ccc(NC(=O)OCc5ccccc5)nc4=O)C(F)(F)[C@@H]3O)C(O)C2(F)F)c(=O)n1 (stereo in doubt) [Compound D4]	%	76.91

Query: Any idea what Relative tumor proliferation rate (T/C %) was measured for CCCCOC(=O)Nc1ccn(C2OC(COC(=O)CCCC(=O)OC[C@H]3O[C@@H](n4ccc(NC(=O)OCCCC)nc4=O)C(F)(F)[C@@H]3OC(=O)OCCCC)C(OC(=O)OCCCC)C2(F)F)c(=O)n1 (stereo in doubt) [Compound D1] ?
Result: 209.10

Query: Now this one: CCCCOC(=O)Nc1ccn([C@H]2O[C@@H](COC(=O)CCC(=O)OC[C@H]3O[C@@H](n4ccc(NC(=O)OCCCC)nc4=O)C(F)(F)[C@@H]3O)[C@H](O)C2(F)F)c(=O)n1 (stereo in doubt) [Compound D2]
Result: 63.87

* * *

- METHOD_SUMMARY: Body weight / toxicity of a single intraperitoneal injection in HCT-116 colon tumor-bearing nude mice
- TEST_CONDITIONS: Day 21; single IP injection (QD×1); D1 and D2 400 mg/kg, D3 350 mg/kg, D4 300 mg/kg
VALUE_KIND: Average rate of weight change of the animals

Some molecules with recorded Average rate of weight change of the animals:
MOLECULE	TEST_RESULT
CCCCOC(=O)Nc1ccn(C2OC(COC(=O)CCCC(=O)OC[C@H]3O[C@@H](n4ccc(NC(=O)OCCCC)nc4=O)C(F)(F)[C@@H]3OC(=O)OCCCC)C(OC(=O)OCCCC)C2(F)F)c(=O)n1 (stereo in doubt) [Compound D1]	7.90 ± 2.90 %
O=C(CCCC(=O)OC[C@H]1O[C@@H](n2ccc(NC(=O)OCc3ccccc3)nc2=O)C(F)(F)[C@@H]1O)OC[C@H]1O[C@@H](n2ccc(NC(=O)OCc3ccccc3)nc2=O)C(F)(F)[C@@H]1O [Compound D3]	10.72 ± 1.6 %
CCCCOC(=O)Nc1ccn([C@H]2O[C@@H](COC(=O)CCC(=O)OC[C@H]3O[C@@H](n4ccc(NC(=O)OCCCC)nc4=O)C(F)(F)[C@@H]3O)[C@H](O)C2(F)F)c(=O)n1 (stereo in doubt) [Compound D2]	4.22 ± 1.23 %

Would you kindly look at the next entry?
Query: Need Average rate of weight change of the animals, item CCCCOC(=O)Nc1ccn(C2OC(COC(=O)CCC(=O)OC[C@H]3O[C@@H](n4ccc(NC(=O)OCc5ccccc5)nc4=O)C(F)(F)[C@@H]3O)C(O)C2(F)F)c(=O)n1 (stereo in doubt) [Compound D4]
Result: 7.41 ± 1.37 %

* * *

- System: HCT-116 human colon cancer xenografts
- METHOD_SUMMARY: Tumor growth inhibition of HCT-116 human colon cancer xenografts in nude mice
- Type: in vivo, Balb/c nude mice
- TEST_CONDITIONS: Day 2; single IP injection (QD×1); D1 and D2 400 mg/kg, D3 350 mg/kg, D4 300 mg/kg
- Protocol: 2. Preparation of the test substance was performed by dissolving the test substance using the following solvents: 3. Animal experiments were performed. […] Animals were numbered using their tail number. 4.1 Tumor cells were human HCT-116 colon cancer cells purchased from the Institute of Cell Biology, Chinese Academy of Sciences (Beijing, China). […] The cells were resuspended with serum-free medium and counted. […]
VALUE_KIND: Relative tumor proliferation rate (T/C %)
Hi! Could you send only the number? It should be in %, unit omitted.

Example entries begin here.
COMPOUND	TEST_RESULT
CCCCOC(=O)Nc1ccn(C2OC(COC(=O)CCC(=O)OC[C@H]3O[C@@H](n4ccc(NC(=O)OCc5ccccc5)nc4=O)C(F)(F)[C@@H]3O)C(O)C2(F)F)c(=O)n1 (stereo in doubt)	66.48
O=C(CCCC(=O)OC[C@H]1O[C@@H](n2ccc(NC(=O)OCc3ccccc3)nc2=O)C(F)(F)[C@@H]1O)OC[C@H]1O[C@@H](n2ccc(NC(=O)OCc3ccccc3)nc2=O)C(F)(F)[C@@H]1O	49.58
CCCCOC(=O)Nc1ccn([C@H]2O[C@@H](COC(=O)CCC(=O)OC[C@H]3O[C@@H](n4ccc(NC(=O)OCCCC)nc4=O)C(F)(F)[C@@H]3O)[C@H](O)C2(F)F)c(=O)n1 (stereo in doubt) [Compound D2]	40.78

Next compound, Relative tumor proliferation rate (T/C %) to be filled in.
Query: Lab request: please report Relative tumor proliferation rate (T/C %) under test system HCT-116 human colon cancer xenografts for CCCCOC(=O)Nc1ccn(C2OC(COC(=O)CCCC(=O)OC[C@H]3O[C@@H](n4ccc(NC(=O)OCCCC)nc4=O)C(F)(F)[C@@H]3OC(=O)OCCCC)C(OC(=O)OCCCC)C2(F)F)c(=O)n1 (stereo in doubt) [Compound D1]
Result: 65.15

* * *

- System: HCT-116 human colon cancer cells
- METHOD_SUMMARY: Colony formation inhibition test on HCT-116 human colon cancer cells
- Type: cell-based
- TEST_CONDITIONS: Homo sapiens, HCT-116; 450 nM; 72 h treatment, then 7-10 days; read-out: % inhibition (colony formation inhibition rate)
Listed here are molecules together with their documented inhibition at 0.45 µM.
Express the result in % but write the number alone.

Previously resolved entries follow.
MOLECULE	VALUE_KIND	DISPLAY_UNIT	TEST_RESULT
CCCCOC(=O)Nc1ccn(C2OC(COC(=O)CCC(=O)OC[C@H]3O[C@@H](n4ccc(NC(=O)OCc5ccccc5)nc4=O)C(F)(F)[C@@H]3O)C(O)C2(F)F)c(=O)n1 (stereo in doubt)	inhibition at 0.45 µM	%	95.7
CCCCOC(=O)Nc1ccn(C2OC(COC(=O)CCCC(=O)OC[C@H]3O[C@@H](n4ccc(NC(=O)OCCCC)nc4=O)C(F)(F)[C@@H]3OC(=O)OCCCC)C(OC(=O)OCCCC)C2(F)F)c(=O)n1 (stereo in doubt) [Compound D1]	inhibition at 0.45 µM	%	79.3
CCCCOC(=O)Nc1ccn([C@H]2O[C@@H](COC(=O)CCC(=O)OC[C@H]3O[C@@H](n4ccc(NC(=O)OCCCC)nc4=O)C(F)(F)[C@@H]3O)[C@H](O)C2(F)F)c(=O)n1 (stereo in doubt) [Compound D2]	inhibition at 0.45 µM	%	85.9

Query: Entry under review: `O=C(CCCC(=O)OC[C@H]1O[C@@H](n2ccc(NC(=O)OCc3ccccc3)nc2=O)C(F)(F)[C@@H]1O)OC[C@H]1O[C@@H](n2ccc(NC(=O)OCc3ccccc3)nc2=O)C(F)(F)[C@@H]1O` . Reported inhibition at 0.45 µM?
Result: 98.3

* * *

# Average rate of weight change of the animals listing for each entry below
- METHOD_SUMMARY: Body weight / toxicity of a single intraperitoneal injection in HCT-116 colon tumor-bearing nude mice
- TEST_CONDITIONS: Day 4; single IP injection (QD×1); D1 and D2 400 mg/kg, D3 350 mg/kg, D4 300 mg/kg
Return type: number; implicit unit %.

Study these solved cases before continuing.
COMPOUND	TEST_RESULT
CCCCOC(=O)Nc1ccn([C@H]2O[C@@H](COC(=O)CCC(=O)OC[C@H]3O[C@@H](n4ccc(NC(=O)OCCCC)nc4=O)C(F)(F)[C@@H]3O)[C@H](O)C2(F)F)c(=O)n1 (stereo in doubt) [Compound D2]	−10.63
O=C(CCCC(=O)OC[C@H]1O[C@@H](n2ccc(NC(=O)OCc3ccccc3)nc2=O)C(F)(F)[C@@H]1O)OC[C@H]1O[C@@H](n2ccc(NC(=O)OCc3ccccc3)nc2=O)C(F)(F)[C@@H]1O [Compound D3]	−8.10
CCCCOC(=O)Nc1ccn(C2OC(COC(=O)CCCC(=O)OC[C@H]3O[C@@H](n4ccc(NC(=O)OCCCC)nc4=O)C(F)(F)[C@@H]3OC(=O)OCCCC)C(OC(=O)OCCCC)C2(F)F)c(=O)n1 (stereo in doubt) [Compound D1]	−18.58

Now look at this entry.
Query: What value of measured Average rate of weight change of the animals is listed for CCCCOC(=O)Nc1ccn(C2OC(COC(=O)CCC(=O)OC[C@H]3O[C@@H](n4ccc(NC(=O)OCc5ccccc5)nc4=O)C(F)(F)[C@@H]3O)C(O)C2(F)F)c(=O)n1 (stereo in doubt) [Compound D4] ?
Result: −5.33
